system: ACHN; experiment: NCI tumour cell line growth inhibition, 48 h
The source made the active and inactive calls. No stated cut-off is given here; in the data, active = GI50 up to about 1.1 µM and inactive = higher.
Possible outcomes: yes for active, no for inactive

>>> print(df.to_string())
                             chemicalsmiles  labelclass
0  COc1cc2c(cc1OC)[C@H]1C(=O)c3cc4c(cc3[C@H]1N(C)C2=O)OCO4         yes
1                              NCCCOCC(=O)O          no
2  Cc1cc(NS(=O)(=O)c2ccc(Nc3c4ccccc4nc4c(C(=O)Nc5ccc(S(=O)(=O)N=C(N)N)cc5)ccc(Cl)c34)cc2)no1          no

---

tested on: OVCAR-4; test: NCI tumour cell line growth inhibition, 48 h
The source made the active and inactive calls. No stated cut-off is given here; in the data, active = GI50 up to about 1.1 µM and inactive = higher.
Possible outcomes: active, inactive

compound	labelClass
CC(=O)OCC1OC(n2c(-c3cccs3)c3c(c(C#N)c2=S)-c2ccccc2CC3)C(OC(C)=O)C(OC(C)=O)C1OC(C)=O (centres undefined)	inactive
NCCCOCC(=O)O	inactive
CCOC(=O)CCC(C(=O)OCC)n1nnc2cc(Nc3c(C)[n+]([O-])c4cc(F)c(OCC)cc4[n+]3[O-])ccc21 (centres undefined)	inactive
CN1C2CCC1CC(=CCOC(c1ccc(F)cc1)c1ccc(F)cc1)C2	inactive
CN1c2ccccc2S(=O)(=O)n2c(CCc3ccccc3)nnc21	inactive
S=c1cc(-c2ccc3c(c2)OCO3)s[nH]1	inactive
OCCCNc1ccnc2cc(Cl)ccc12	inactive
C[C@@H]1[C@@H]2[C@@H](C=C3C4CCC5Cc6nc7c(nc6C[C@@]5(C)C4C[C@H](O)[C@]32CO)CC2CCC3C4=C[C@H]5O[C@@]6(OC(C)(CO)C[C@@H]6O)[C@H](C)[C@@]5(O)[C@]4(C)[C@@H](O)CC3[C@]2(C)C7)O[C@]12CCC(C)(C)O2 (some centres undefined)	active
O=C(OC(/C=C/c1ccccc1)P1(=O)N(Cc2ccccc2)[C@@H]2CCCC[C@H]2N1Cc1ccccc1)c1ccccc1 (some centres undefined)	inactive
CN1CCC23c4c5ccc(O)c4OC2C(=NN=C2CCC4(O)C6Cc7ccc(O)c8c7C4(CCN6C)C2O8)CCC3(O)C1C5 (centres undefined)	inactive
C[C@@H]1CC[C@@H](C)[C@](C)(CCc2ccoc2)C/C=C\C=C/1C(=O)O	inactive
CC(c1ccccc1)n1cncc1C(=O)NN1CCN(C)CC1 (centres undefined)	inactive
O=[N+]([O-])c1ccccc1S(=O)(=O)c1cccc2c1NCCC2	inactive
CCc1nc(N)nc(N)c1-c1ccc([N+](=O)[O-])c(NCc2ccccc2)c1	inactive
CN(C)NC1=C([N+](=O)[O-])C=NN(c2ccccc2)C1	inactive
Cc1cc(C(C)(C)C)c(OCCCN2CCOCC2)c(C(C)(C)C)c1	inactive
Cc1ccc2nc3ccccc3c(C3C4C(=O)N(c5ccc(Br)cc5Cl)C(=O)C4ON3C(C(N)=O)c3ccccc3)c2c1 (centres undefined)	inactive
CCCCc1ccc(Nc2nc(Cl)c3c(ncn3C3CC(Oc4ccc(C)cc4)C(COc4ccc(C)cc4)O3)n2)cc1 (centres undefined)	inactive
CC[N+](C)(CC)Cc1ccccc1[N+](=O)[O-]	inactive
c1cc(C2=NCCO2)c2ccsc2c1	inactive
O=C(O/N=C1/CCCC/C1=C\c1ccccc1)c1ccc(Cl)c(Cl)c1	inactive
CC(C)NC(=O)CN1CCN(C2=C(Cl)C(=O)c3c(O)ccc(O)c3C2=O)CC1	inactive
COc1ccc2c(c1)CCc1c-2n(CCN2CCOCC2)c2ccc(OC)cc12	inactive
C=CCC(O[Si](C)(C)C(C)(C)C)c1cc(O[Si](C)(C)C(C)(C)C)ccc1OC (centres undefined)	inactive
CN/C=C(/c1ccc(OC)cc1)C(O)c1ccc(OC)c(OC)c1 (centres undefined)	inactive
CC1(O)CC23CC1CCC2(C)C12CCCC(C)(C(=O)O1)C2CC3O (centres undefined)	inactive
O=[N+]([O-])c1cccc(-c2csc(N/N=C3\NC/C(=C/c4ccc5c(c4)OCO5)S3)n2)c1	inactive
CCOC(=O)C1=C(C)N(Cc2ccccc2)C2(O)C(OC)CC(=O)C3C(=O)N(c4ccccc4)C(=O)C132 (centres undefined)	inactive
O=C1/C(=C(\Nc2ccccc2)c2ccccc2)C=NN1c1ccccc1	inactive

---

// values below are reported GI50
test system: HT-29; experiment: NCI tumour cell line growth inhibition, 48 h
Active and inactive are the calls of the source. Cut-off read from the data, not from the text of the source: active = GI50 up to about 1.1 µM and inactive = higher.
assayMetric: GI50

>>> print(df.to_string())
                                   compound              measured
0           CC(C)c1cccc(C(C)C)c1/N=C(/N)C#N  > 58.6 µM (inactive)
1  OC1(c2ccccc2)CC2CCC(C1)N2CCc1ccccc1 (centres undefined)    23.8 µM (inactive)
2  Cc1ccc(OCC2OC(n3cnc4c(Cl)nc(Cl)nc43)CC2Oc2ccc(C)cc2)cc1 (centres undefined)    1.57 µM (inactive)
3  CCn1c(CSc2nc(-c3ccccc3)c(-c3ccccc3)[nH]2)n[nH]c1=S   > 100 µM (inactive)
4  CN(C)NC1=C([N+](=O)[O-])C=NN(c2ccccc2)C1    1.95 µM (inactive)
5              O=C(O)CSc1nnc(-c2ccco2)[nH]1   > 100 µM (inactive)
6                             NCCCNCCCNCCCN   > 100 µM (inactive)
7  N#Cc1c(-c2ccco2)cc(-c2ccc(N)cc2)[nH]c1=O   > 100 µM (inactive)
8  CC12N=NN(c3ccc([N+](=O)[O-])cc3)C1(O)c1ccccc1C2=O (centres undefined)   > 100 µM (inactive)

---

test system: DMS-114; assay: NCI tumour cell line growth inhibition, 48 h
Activity calls are given as the source filed them. Cut-off read from the data, not from the text of the source: active = GI50 up to about 1.1 µM and inactive = higher.
// values below are reported GI50
assayMetric: GI50

>>> print(df.to_string())
                                   compound             measured
0             COC(=O)C(CCC#N)(CCC#N)C(=O)OC  > 100 µM (inactive)
1       O=P1(c2ccccc2)Nc2ccccc2SSc2ccccc2N1   19.5 µM (inactive)
2  CC(C)(CN1CCCCC1)C(=O)CC(SCCS(=O)(=O)O)c1ccc(Br)cc1 (stereo not drawn)   1.75 µM (inactive)

---

tested on: UO-31; experiment: NCI tumour cell line growth inhibition, 48 h
Activity calls are given as the source filed them. Cut-off read from the data, not from the text of the source: active = GI50 up to about 1.1 µM and inactive = higher.
Possible outcomes: active, inactive

In [3]: df
Out[3]:
                                    compound  subjectoftest  labelclass
 0  O=C(OC(/C=C/c1ccccc1)P1(=O)N(Cc2ccccc2)[C@@H]2CCCC[C@H]2N1Cc1ccccc1)c1ccccc1 (stereo partly drawn)          UO-31    inactive
 1   Nc1nc(N)c(-c2ccccc2)c(C(=O)Nc2ccccc2)n1          UO-31    inactive
 2            CC(=O)Nc1cc([As](=O)(O)O)ccc1O          UO-31    inactive
 3  Cc1c(C#N)c(N)n(C2OC(CO)C(O)C(O)C2O)c(=S)c1C#N (stereo not drawn)          UO-31    inactive
 4               N#Cc1nc(NC(=O)c2ccccc2)sc1N          UO-31    inactive
 5           COc1cccc(/C=C2\N=C(Cl)OC2=O)c1O          UO-31    inactive
 6  O=C1c2ccccc2CC12Cc1ccc3c(c1C2)CCC3 (stereo not drawn)          UO-31    inactive
 7  O=C(Nc1ccc(Br)cc1)C(=O)C(C(=O)c1ccccc1F)C1OC(=O)c2ccccc21 (stereo not drawn)          UO-31    inactive
 8  C=CC[C@]1(/C=N/O)CN(S(=O)(=O)CC[Si](C)(C)C)C[C@H]2CC=CC[C@H]21          UO-31    inactive
 9  CCc1ccc(NC(=O)NC(=O)c2ccccc2[N+](=O)[O-])cc1Oc1ncc(Cl)cn1          UO-31      active
10  COC(=S)OC1CC(n2cnc3c(N)ncnc32)OC1CO[Si](C)(C)C(C)(C)C (stereo not drawn)          UO-31    inactive
11  CCn1c(CSc2nc(-c3ccccc3)c(-c3ccccc3)[nH]2)n[nH]c1=S          UO-31    inactive
12  O=C1OC(c2ccccc2)=N/C1=C\c1ccc(Oc2ccc(Cl)c(Cl)c2)cc1          UO-31    inactive
13  CCOC(=O)C1=C(C)N(Cc2ccccc2)C2(O)C(OC)CC(=O)C3C(=O)N(c4ccccc4)C(=O)C132 (stereo not drawn)          UO-31    inactive
14  CN/C=C(/c1ccc(OC)cc1)C(O)c1ccc(OC)c(OC)c1 (stereo not drawn)          UO-31    inactive
15  COc1cccc(Nc2nc(-c3cccs3)nc3cc(OC)c(OC)cc23)c1          UO-31    inactive
16             c1cnn(CN(Cn2cccn2)Cn2cccn2)c1          UO-31    inactive
17                              NCCCOCC(=O)O          UO-31    inactive
18  N#Cc1c(N)nc2c3c1NC(=O)C(C(N)=O)C3c1ccccc1O2 (stereo not drawn)          UO-31    inactive
19  C[C@@H]1CC[C@@H](C)[C@](C)(CCc2ccoc2)C/C=C\C=C/1C(=O)O          UO-31    inactive
20  Cc1cc([N+](=O)[O-])c(S(=O)(=O)c2ccccc2)c([N+](=O)[O-])c1          UO-31    inactive
21  O=[N+]([O-])c1ccccc1C1SCc2nc3ccccc3n21 (stereo not drawn)          UO-31    inactive
22  NC(CC1=CCC=CC1)C(=O)O (stereo not drawn)          UO-31    inactive
23  COc1ccc(-c2c(C(C)=O)c(-c3ccccc3)n(C3OC(CO)C(O)C(O)C3O)c(=S)c2C#N)cc1 (stereo not drawn)          UO-31    inactive
24          COC(=O)/C=C\n1c(C)cc(=O)[nH]c1=O          UO-31    inactive
25  C=C1C(O)C23CCC4C(C(=O)O)(C(=O)O)CC(OC5OC(CO)C(O)C(OC(=O)CCc6ccccc6)C5NC(=O)CC(C)C)CC4(C)C2CCC1(O)C3 (stereo not drawn)          UO-31    inactive
26  COC(=N)C1(C#N)NC(c2ccsc2)C(C#N)(C#N)NC1c1ccsc1 (stereo not drawn)          UO-31    inactive
27  O=C(OCc1ccccc1)C(Cc1ccccc1)N(Cc1ccccc1)Cc1ccccc1 (stereo not drawn)          UO-31    inactive
28            S=c1cc(-c2ccc3c(c2)OCO3)s[nH]1          UO-31    inactive
29  CN1CCN(c2cc(-c3cc4ccccc4o3)oc(=O)c2C#N)CC1          UO-31    inactive
30              COc1ccc(O)c(C(=O)CCC(=O)O)c1          UO-31    inactive
31  CC1CCC2N(C1)CC1C3(O)CC45OC6(O)C(O)CCC4(C)C6CCC5C3(O)CC(O)C1(O)C2(C)O (stereo not drawn)          UO-31    inactive
32  Nc1ncnc2oc(C3OC(COC(=O)c4ccccc4)C(OC(=O)c4ccccc4)C3OC(=O)c3ccccc3)nc12 (stereo not drawn)          UO-31    inactive
33                    Cc1ccc(/N=N/NCCCCN)cc1          UO-31    inactive
34            C=CCc1cccc(/C=N\N/C(N)=N/O)c1O          UO-31    inactive
35         COC(=O)[C@@H]1C=C[C@H](NC(C)=O)C1          UO-31    inactive
36  OCCN(CCO)c1nc(N2CCCCC2)c2nc(N(CCO)CCO)nc(N3CCCCC3)c2n1          UO-31    inactive
37  O=C1/C(=C/c2ccc3c(c2)OCO3)SC2C=Nc3ccccc3N12 (stereo not drawn)          UO-31    inactive
